- targetSystem: T1, hGLP-2 receptor (human, UniProt O95838 1-553)
- T1 sequence (looked up): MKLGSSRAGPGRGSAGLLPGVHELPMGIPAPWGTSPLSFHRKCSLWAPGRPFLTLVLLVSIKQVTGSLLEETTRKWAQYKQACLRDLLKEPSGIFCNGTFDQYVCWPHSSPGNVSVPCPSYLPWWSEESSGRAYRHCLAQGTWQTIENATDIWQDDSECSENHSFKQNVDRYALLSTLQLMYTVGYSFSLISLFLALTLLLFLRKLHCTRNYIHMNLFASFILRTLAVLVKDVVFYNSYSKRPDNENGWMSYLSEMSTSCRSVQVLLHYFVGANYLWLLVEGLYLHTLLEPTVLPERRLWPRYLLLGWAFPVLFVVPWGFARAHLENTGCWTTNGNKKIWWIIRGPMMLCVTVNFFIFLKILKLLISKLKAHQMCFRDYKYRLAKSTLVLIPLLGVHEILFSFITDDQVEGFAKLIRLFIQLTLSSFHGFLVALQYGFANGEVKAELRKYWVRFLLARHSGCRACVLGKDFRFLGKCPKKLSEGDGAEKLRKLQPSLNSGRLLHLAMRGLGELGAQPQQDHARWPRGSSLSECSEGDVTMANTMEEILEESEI
- protocolDetails: cell-based or functional assay
Listed here: items and their measured pEC50 (CRE-luciferase reporter, BHK-21 cells transiently transfected with hGLP-2 receptor).
Just the number.

The following binders have reported results that may help.
INSERT INTO results (binder, recordedmeasurement) VALUES
  ('H-HGEGSFSSELSTILDALAARDFIAWLIATKITDK-OH [ZP2242]', 12.4),
  ('H-HGEGSFSDELATILEALAASDFISWLISTKITD-NH2 [ZP2268]', 11.2),
  ('H-HGEGSFSDELETILEELAAEDFIEWLIETKITD-NH2 [ZP2266]', 9.25);

Turning now to a further binder:
Query string: Record request: pEC50 (CRE-luciferase reporter, BHK-21 cells transiently transfected with hGLP-2 receptor) value, item H-HGEGSFSDELSTILESLAAADFIAWLIATKITD-NH2 [ZP2267]
Result string: 10.9
